Test system: A2780/cis ovarian cancer cells
TEST METHOD NOTES: MTT-based cell viability assay, A2780/cis (cisplatin-resistant), 72 h
Set-up: species or system human
STUDY CONDITIONS: fold-change between IC50 values of A2780/cis:A2780/wt, 72 h
Marks after values point to notes of the source that are not given here.
Overview of reported RF (resistance factor) across a group of compounds:

Provide value of RF (resistance factor) for this record tested with A2780/cis ovarian cancer cells: N.N.O=C([O-])C1(C(=O)[O-])CCC1.[Pt+2]
2.3****

New cases:
Provide value of RF (resistance factor) for this record tested with A2780/cis ovarian cancer cells: N.N.[Cl][Pt][Cl] [cisplatin, reference compound]
5.1****

Provide value of RF (resistance factor) for this record tested with A2780/cis ovarian cancer cells: CC(=O)[O][Pt]([Cl])([Cl])[O]C(=O)NCCN1C(=O)CCC1=O.Cc1ccccn1.N
>1.6

Provide value of RF (resistance factor) for this record tested with A2780/cis ovarian cancer cells: O=C1[O][Pt]2([NH][C@@H]3CCCC[C@H]3[NH]2)[O]C1=O
1.1^ns

Provide value of RF (resistance factor) for this record tested with A2780/cis ovarian cancer cells: Cc1ccccn1.N.O=C1[O][Pt][O]C1=O
1.4^ns
